Consider the following compounds; for each one, report its TGI.
- Tested on: U251 CNS
- assay details: NCI tumour cell line growth inhibition, 48 h

Prompt: Which TGI is reported for this compound? COC1OC2COC(c3ccccc3)OC2C(O)C1Br (stereo unspecified)
Completion: > 100 µM

Prompt: Which TGI is reported for this compound? CC1=C(C(=O)Nc2ccc([N+](=O)[O-])cc2)C(c2ccccc2F)C(C(=O)Nc2ccc([N+](=O)[O-])cc2)=C(C)N1
Completion: 76.6 µM

Prompt: Which TGI is reported for this compound? NC(=O)c1cccc([C@@H]2O[C@H](CO)[C@@H](O)[C@H]2O)c1
Completion: 32.4 µM

Prompt: Which TGI is reported for this compound? CCC(Oc1ccc(OC)c2ccccc(=O)c12)C(=O)O (stereo unspecified)
Completion: > 100 µM

Prompt: Which TGI is reported for this compound? C[N+](C)=c1nc(N2CCc3ccccc3C2)ss1
Completion: > 100 µM

Prompt: Which TGI is reported for this compound? CC[C@@H]1/C=C/C=C/C[C@H](C)[C@@H](O)[C@](C)(O)C(=O)[C@H](C)[C@@H](O)[C@H](C)C(=O)[C@H](C)[C@@H](O)[C@H](C)/C=C/C(=O)O[C@H]2[C@@H](C)[C@@H](CC1)O[C@@]1(CC[C@@H](C)[C@@H](CC(C)O)O1)[C@@H]2C (stereo partly specified)
Completion: 11.1 µM

Prompt: Which TGI is reported for this compound? O=C(Nc1ccc(I)cc1F)c1cc(Cl)ccc1O
Completion: > 100 µM

Prompt: Which TGI is reported for this compound? COc1ccc(CCNC(=O)[C@H]2CCCC[C@@H]2CCO)cc1OC
Completion: > 100 µM

Prompt: Which TGI is reported for this compound? COC(=O)[C@@H](C)C[C@H](Cc1ccccc1)NC(=O)c1csc([C@@H](C[C@H](C(C)C)N(C)C(=O)[C@H](C)NC(=O)[C@H]2CCCCN2C)OC(C)=O)n1
Completion: > 25 µM

Prompt: Which TGI is reported for this compound? O=C1C=CC(O)C2C1CC13SSC4(CC5C(=O)C=CC(O)C5N4C1=O)C(=O)N23 (stereo unspecified)
Completion: 1.28 µM

Prompt: Which TGI is reported for this compound? CC1=NN=C(N)NC1=CC(Sc1ccc(Cl)cc1)c1c(O)ccc2ccccc12 (stereo unspecified)
Completion: 76.8 µM

Prompt: Which TGI is reported for this compound? COc1cc(C(=O)Oc2c(C#N)sc3c2c(=O)n(-c2ccccc2)c(=S)n3-c2ccccc2)cc(OC)c1OC
Completion: 45.9 µM

Prompt: Which TGI is reported for this compound? Cc1cc2c(C)n(Cc3ccc(Cl)cc3Cl)nc2c(C(=O)O)c1C
Completion: > 100 µM

Prompt: Which TGI is reported for this compound? COc1ccc(CCNCCCC2c3ccccc3-c3ccccc32)cc1OC
Completion: 26.2 µM

Prompt: Which TGI is reported for this compound? COc1ccc(C2=CC(c3ccc(OC)c(OC)c3)c3c(c4ccccc4oc3=O)O2)cc1OC (stereo unspecified)
Completion: > 100 µM

Prompt: Which TGI is reported for this compound? CNC(=O)OCC1C2=C(C(=O)C(C)=C(N)C2=O)N2CC3C(N3C)C12OC (stereo unspecified)
Completion: 45.7 µM

Prompt: Which TGI is reported for this compound? COc1ccc2nc(NC(=O)c3cccnc3Nc3cc(OC)c(OC)c(OC)c3)sc2c1
Completion: 21.7 µM

Prompt: Which TGI is reported for this compound? CCC(=O)C(C(C)/C=C/CCSc1ccccc1)C(O)CCCCCC(=O)OC (stereo unspecified)
Completion: > 100 µM

Prompt: Which TGI is reported for this compound? N#CC1=C(Cl)NC(Cl)=C(C#N)C1c1c(Cl)cccc1Cl
Completion: 48.5 µM

Prompt: Which TGI is reported for this compound? C[C@]12CC[C@H](O)CC1=CC[C@@H]1C2CC[C@]2(C)Nc3c(cnn3-c3ccc(F)cc3)CC12 (stereo partly specified)
Completion: > 100 µM

Prompt: Which TGI is reported for this compound? CC(=O)C1=CCC2c3[nH]c4ccccc4c3CCN2C1 (stereo unspecified)
Completion: > 100 µM

Prompt: Which TGI is reported for this compound? CCOC(=O)c1c(C)c(C)n2c1NC(=O)C2
Completion: 97.7 µM

Prompt: Which TGI is reported for this compound? Cc1cc2c(cc1N)C(C)C1(CCC(=O)N2Cc2ccccc2)OCCO1 (stereo unspecified)
Completion: > 100 µM

Prompt: Which TGI is reported for this compound? CCCNc1nc2ccccc2c2c1S(=O)(=O)c1ccc(Cl)cc1C2=O
Completion: > 50 µM

Prompt: Which TGI is reported for this compound? CCOP(=O)(OCC)/C(C#N)=C/c1ccnc2ccccc12
Completion: > 100 µM

Prompt: Which TGI is reported for this compound? CO[C@H]1CC(c2ccc[nH]2)=N[C@]12O[C@@H](C)C[C@@H]1CCCCCCCc3ccc([nH]3)[C@H]12
Completion: 17.3 µM

* * *

Consider the following molecules; for each one, report its TGI.
- Tested on: TK-10 renal
- assay details: NCI tumour cell line growth inhibition, 48 h

Prompt: Which TGI is reported for this molecule? NCc1cc(O)c(O)c(O)c1
Completion: > 100 µM

Prompt: Which TGI is reported for this molecule? O=C1NC2(CCN(CCCC3(c4ccc(F)cc4)OCCO3)CC2)Oc2ccccc21
Completion: > 100 µM

Prompt: Which TGI is reported for this molecule? O=S(=O)(C/C(=N\O)c1ccccc1)c1ccccc1
Completion: > 100 µM

Prompt: Which TGI is reported for this molecule? CC12Oc3ccc4ccccc4c3CC1Cc1c(ccc3ccccc13)O2 (stereo not given)
Completion: > 100 µM

Prompt: Which TGI is reported for this molecule? CC(=O)ON(C(C)=O)c1ccc(-c2nc3ccccc3s2)cc1C
Completion: > 100 µM

Prompt: Which TGI is reported for this molecule? COc1ccc2c(c1OC)C(=O)c1cnccc1C2=O
Completion: > 100 µM

Prompt: Which TGI is reported for this molecule? Cc1ccccc1-n1c(C)nc(-c2ccccc2)cc1=O
Completion: > 100 µM

Prompt: Which TGI is reported for this molecule? O=C1C2Nc3ccccc3SC2C(=O)N1c1ccccc1C(F)(F)F (stereo not given)
Completion: > 100 µM

Prompt: Which TGI is reported for this molecule? COc1cc(/C=C/C(=O)c2cccnc2Nc2ccc(F)cc2)cc(OC)c1OC
Completion: 9.5 µM

Prompt: Which TGI is reported for this molecule? Cc1ccc(-c2nc(N3CCCNCC3)c3oc(-c4ccc(C)cc4)nc3n2)cc1
Completion: 3.96 µM

* * *

Consider the following molecules; for each one, report its TGI.
- Tested on: IGROV1 ovarian
- assay details: NCI tumour cell line growth inhibition, 48 h

Prompt: Which TGI is reported for this molecule? Nc1n[nH]c(CCc2nc(N)n[nH]2)n1
Completion: > 100 µM

Prompt: Which TGI is reported for this molecule? O=C(O)C1=C(C(=O)Nc2ccc(NC(=O)C3=C(C(=O)O)C4C=CC3C4)cc2)C2C=CC1C2
Completion: > 100 µM

Prompt: Which TGI is reported for this molecule? Cc1c(Sc2ccccc2)[n+](=O)c2cc(Cl)c(Cl)cc2n1[O-]
Completion: 38 µM

Prompt: Which TGI is reported for this molecule? CC1=C(C(=O)Nc2ccc([N+](=O)[O-])cc2)C(c2ccccc2F)C(C(=O)Nc2ccc([N+](=O)[O-])cc2)=C(C)N1
Completion: > 100 µM

Prompt: Which TGI is reported for this molecule? O=C(CSC1=NNC2(C(=O)N1)c1ccccc1-c1ccccc12)NC(=S)Nc1ccccc1
Completion: > 10 µM

Prompt: Which TGI is reported for this molecule? COc1cc(/C=C/C(=O)c2cccnc2Nc2ccc(F)cc2)cc(OC)c1OC
Completion: 50.3 µM

* * *

- System: ACHN renal
- assay details: NCI tumour cell line growth inhibition, 48 h
readout kind: TGI

Prompt: Give TGI (ACHN renal) of the following compound: O=C(Nc1ccc(I)cc1F)c1cc(Cl)ccc1O
Completion: 10.6 µM

Prompt: Give TGI (ACHN renal) of the following compound: CCN(CC)CCO/N=C1/C=C2CCC3C(CC[C@@]4(C)C3CC[C@]4(C)O)[C@@]2(C)CC1 (stereo partly drawn)
Completion: 39.2 µM

Prompt: Give TGI (ACHN renal) of the following compound: Cn1cnc([N+](=O)[O-])c1Sc1ncn[nH]1
Completion: > 100 µM

Prompt: Give TGI (ACHN renal) of the following compound: CC[C@@H]1/C=C/C=C/C[C@H](C)[C@@H](O)[C@](C)(O)C(=O)[C@H](C)[C@@H](O)[C@H](C)C(=O)[C@H](C)[C@@H](O)[C@H](C)/C=C/C(=O)O[C@H]2[C@@H](C)[C@@H](CC1)O[C@@]1(CC[C@@H](C)[C@@H](CC(C)O)O1)[C@@H]2C (stereo partly drawn)
Completion: 8.69 µM

Prompt: Give TGI (ACHN renal) of the following compound: CNC(=O)OCC1C2=C(C(=O)C(C)=C(N)C2=O)N2CC3C(N3C)C12OC (stereo not drawn)
Completion: 26.7 µM

Prompt: Give TGI (ACHN renal) of the following compound: CC(=O)c1sc(=N)n(-c2c(C)cccc2C)c1C
Completion: > 100 µM

Prompt: Give TGI (ACHN renal) of the following compound: O=c1oc2ccc([N+](=O)[O-])cc2c(Nc2ccc3c(c2)S(=O)(=O)c2ccccc2O3)c1[N+](=O)[O-]
Completion: > 100 µM

Prompt: Give TGI (ACHN renal) of the following compound: CN(C)Cc1cc(C(C)(C)C)cc(C2CCCCC2)c1O
Completion: 28.9 µM

Prompt: Give TGI (ACHN renal) of the following compound: COC(=O)CCC(=O)NC1C2CC3CC(C2)CC1C3 (stereo not drawn)
Completion: > 100 µM

Prompt: Give TGI (ACHN renal) of the following compound: O=C1CC(c2ccc(Cl)cc2)Oc2ccccc21 (stereo not drawn)
Completion: > 100 µM

Prompt: Give TGI (ACHN renal) of the following compound: N#CC1=C(Cl)NC(Cl)=C(C#N)C1c1c(Cl)cccc1Cl
Completion: > 100 µM

Prompt: Give TGI (ACHN renal) of the following compound: N#Cc1c(N2CCOCC2)[nH]c(=O)c(C(c2c(Cl)cccc2Cl)c2c(O)c(C#N)c(N3CCOCC3)[nH]c2=O)c1O
Completion: 29.6 µM

Prompt: Give TGI (ACHN renal) of the following compound: Nc1nc(N)c2nc(CNc3ccc(C(=O)NC(CCCCNC(=O)c4ccccc4C(=O)O)C(=O)O)cc3)cnc2n1 (stereo not drawn)
Completion: > 100 µM

Prompt: Give TGI (ACHN renal) of the following compound: O=C1c2nc3n(c2C(=O)c2c1nc1n2CCC1)CCC3
Completion: 23.9 µM

Prompt: Give TGI (ACHN renal) of the following compound: O=C1NCCS(=O)(=O)/C1=C\C=C\c1cccc(C(F)(F)F)c1
Completion: 4.52 µM

Prompt: Give TGI (ACHN renal) of the following compound: CC(C)(C)S(=O)OC12CC3CC(CC(C3)C1)C2 (stereo not drawn)
Completion: > 100 µM

Prompt: Give TGI (ACHN renal) of the following compound: Cc1cc2c(cc1N)C(C)C1(CCC(=O)N2Cc2ccccc2)OCCO1 (stereo not drawn)
Completion: > 100 µM

Prompt: Give TGI (ACHN renal) of the following compound: COC1=C2CC(C)CC(OC)C(O)C(C)/C=C(\C)C(OC(N)=O)C(OC)/C=C\C=C(/C)C(=O)NC(=C(/C=N/N3CCCCC3)C1=O)C2=O (stereo not drawn)
Completion: 28.8 µM

Prompt: Give TGI (ACHN renal) of the following compound: Nc1n[nH]c(CCc2nc(N)n[nH]2)n1
Completion: > 100 µM

Prompt: Give TGI (ACHN renal) of the following compound: CC12Oc3ccc4ccccc4c3CC1Cc1c(ccc3ccccc13)O2 (stereo not drawn)
Completion: > 100 µM

Prompt: Give TGI (ACHN renal) of the following compound: COP(=O)(OC)/C(=C\c1cn(C(c2ccccc2)(c2ccccc2)c2ccccc2)cn1)NC(C)=O
Completion: > 100 µM

Prompt: Give TGI (ACHN renal) of the following compound: NCc1cc(O)c(O)c(O)c1
Completion: > 100 µM

Prompt: Give TGI (ACHN renal) of the following compound: CC1=CC(=O)N(c2c(C)cccc2Cl)C(C)N1 (stereo not drawn)
Completion: > 100 µM

Prompt: Give TGI (ACHN renal) of the following compound: O=C(NO)c1ccc(O)c(O)c1
Completion: > 100 µM

Prompt: Give TGI (ACHN renal) of the following compound: COC(=O)c1ccc(NCc2cc(O)ccc2O)cc1
Completion: 24 µM

Prompt: Give TGI (ACHN renal) of the following compound: O=C(Nc1ccn(CCI)c(=O)n1)c1ccccc1
Completion: > 100 µM

Prompt: Give TGI (ACHN renal) of the following compound: CC(C)C(NCc1c(O)ccc2c(-c3ccccc3)cc(=O)oc12)C(=O)O (stereo not drawn)
Completion: > 100 µM

Prompt: Give TGI (ACHN renal) of the following compound: c1ccc(CNc2nc(Nc3ccccc3)nc3ccccc23)cc1
Completion: 4.16 µM

Prompt: Give TGI (ACHN renal) of the following compound: CCOP(=O)(OCC)/C(C#N)=C/c1ccnc2ccccc12
Completion: > 100 µM

Prompt: Give TGI (ACHN renal) of the following compound: Cc1cccc2nc3cccc(C(=O)NCCN(C)C)c3nc12
Completion: 5.8 µM

Prompt: Give TGI (ACHN renal) of the following compound: C/C=C(\C)C(=O)N[C@H]1C(O)C[C@]2(C)C3CC[C@@]4(C)C(CC[C@@H]4C(C)N(C)C)C3CCC2C1O (stereo partly drawn)
Completion: 43.4 µM

Prompt: Give TGI (ACHN renal) of the following compound: Cc1ccc(S(=O)(=O)NCCCSCCSCCCN)cc1
Completion: > 100 µM

Prompt: Give TGI (ACHN renal) of the following compound: COc1cc2c3c(n(CCCN=[N+]=[N-])c(=O)c2cc1OC)-c1ccc(N(C)C)cc1C3=O
Completion: > 100 µM
